- System: Mus musculus
- measurement.protocol: Drug level in mouse brain at 50 mg/kg, po
- Assay type: ADME, organism-based
- Design: dose 50 mg/kg, route oral
- experimental.parameters: in vivo, read-out: Drug uptake
measured.attribute: concentration

Answered examples (5):
                                   compound  measured_attribute  observed
0  CSc1ccc(/C=C2/C(C)=C(CC(=O)O)c3cc(F)ccc32)cc1 [SULINDAC SULFIDE]       concentration    1.7 µM
1        CC(=O)Nc1ccc(O)cc1 [ACETAMINOPHEN]       concentration     43 µM
2  Cc1cccc(Nc2ccccc2C(=O)O)c1C [MEFENAMIC ACID]       concentration    2.7 µM
3  COc1ccc2cc([C@H](C)C(=O)O)ccc2c1 [NAPROXEN]       concentration     27 µM
4  CC(C)Cc1ccc(C(C)C(=O)O)cc1 (centres undefined) [IBUPROFEN]       concentration     18 µM

Form: compound = COc1ccc2c(c1)c(CC(=O)O)c(C)n2C(=O)c1ccc(Cl)cc1 [INDOMETHACIN] ; concentration = 3 µM

Query CC(C(=O)O)c1cccc(Oc2ccccc2)c1 (centres undefined) [FENOPROFEN] yields concentration of 41 µM

Per the record, C[C@@H](C(=O)O)c1ccc(-c2ccccc2)c(F)c1 [TARENFLURBIL] has concentration of 41 µM

Lookup result for `CC(C)(C(=O)O)c1ccc(-c2ccccc2)c(F)c1` ; measured concentration: 13 µM

----------
- measurement.protocol: Tmax in monkey at 2 mg/kg, po
- Type: ADME, organism-based, Macaca mulatta
- Set-up: dose 2 mg/kg, route oral
- experimental.parameters: rhesus monkey, in vivo
measured.attribute: Tmax (min)
The reply should be a number in min, with the unit left off.

Tmax measured on `CC(C)(C(=O)O)c1ccc(-c2ccccc2)c(F)c1` = 15

----------
- measurement.protocol: Oral bioavailability in monkey at 2 mg/kg, po
- Format: ADME, organism-based, Macaca mulatta
- experimental.parameters: rhesus monkey, in vivo
measured.attribute: bioavailability
Number first, unit second.

bioavailability reading for `CC(C)(C(=O)O)c1ccc(-c2ccccc2)c(F)c1` : 90%

----------
- measurement.protocol: Half life in dog at 2 mg/kg, iv
- Assay type: ADME, organism-based, Canis lupus familiaris
- Parameters: dose 2 mg/kg, route intravenous
- experimental.parameters: in vivo
measured.attribute: half-life (h)
Just the number please, in h, no unit attached.

Kindly note the recorded half-life for `CC(C)(C(=O)O)c1ccc(-c2ccccc2)c(F)c1` , which is 11.3

----------
- measurement.protocol: Volume of distribution in rat at 2 mg/kg, iv
- Assay type: ADME, organism-based
- Set-up: dose 2 mg/kg, route intravenous
- experimental.parameters: in vivo, read-out: Vdss
measured.attribute: Vd (L/kg)
Answer in L/kg, number only, no unit symbol.

Documented Vd of `CC(C)(C(=O)O)c1ccc(-c2ccccc2)c(F)c1` : 0.15

----------
- measurement.protocol: Half life in mouse at 2 mg/kg, iv
- Type: ADME, organism-based
- Parameters: dose 2 mg/kg, route intravenous
- experimental.parameters: in vivo
measured.attribute: half-life (h)
Give the number; h is assumed, so skip it.

Reported half-life for `CC(C)(C(=O)O)c1ccc(-c2ccccc2)c(F)c1` was 4.6
